result.type: melting point

Recorded results for 5 molecules are shown here.
Cc1cccc(C(=O)OCC=Cc2ccccc2)c1O : 154 °C
O=C(O)c1ccc(OC(=O)c2cccc(C(=O)Oc3ccc(C(=O)O)cc3)c2)cc1 : 290 to 300 °C
CN1CCC(C)(O)C(C)(C)C1Cc1ccccc1 (stereo unspecified) : 95 to 103 °C
CCNc1cccc2c1OC1(CC1)C2=O : 80.6 °C
COc1c(F)cc(CCCn2nnnc2S)cc1F : 64 to 65 °C

# return recorded melting point for input `CC(C)NNC(=O)c1ccc(Cl)c(Cl)c1`
112 to 115 °C

* * *

Listing of entries alongside the reported melting point.

Recorded results for 8 compounds are shown here.
COc1cc2c3c(c(=O)n(C)c2cc1OC)CNCC3 : 178 to 179 °C
Cc1ccc(S(=O)(=O)OCCN(CCOS(=O)(=O)c2ccc(C)cc2)S(=O)(=O)c2ccc(C)cc2)cc1 : 85 to 87 °C
O=C(Nc1cc2ncc(CN3CCCC3)cc2cc1F)c1ccc(-c2ccc(C(F)(F)F)cc2)cc1 : 209 to 212 °C
Cc1c(NCCN)nc(=O)n(C)c1N : 186 to 188 °C
OCC1OC(n2cnc3c(N4CCCC4)nc(Cl)nc32)C(O)C1O (stereo not given) : 229 °C
CCCCCCCCOc1ccc2c(c1CCC)OC(CCC(=O)O)(CCC(=O)O)CC2=O : 148 °C
CCc1cc(CCN2C(=O)c3ccccc3C2=O)c(=O)[nH]c1C : 232 to 233 °C
CNc1ccc(N2CCC(C)CC2)c(C(=O)c2ccc(Cl)cc2)c1 : 177 °C

# return recorded melting point for input COc1ccc2nc(NC(=O)C(CC3CCCC3)c3ccc(S(=O)(=O)NCc4ccccc4)cc3)sc2n1 (stereo not given)
237 to 240 °C

# return recorded melting point for input `CCSc1nnnn1-c1ccc(Cl)cc1F`
76 to 79 °C

* * *

Listing of entries alongside the reported melting point.

N#CCCC1CN(C(=O)OCc2ccccc2)CCO1 (stereo not given) : 59 to 60 °C
CCCCOc1c(CN2C(=O)c3ccccc3C2=O)n(CC(C)(C)C)c(=O)c2cc(F)ccc12 : 155 to 156 °C
Cc1nc(-n2ccc(OCc3ccccn3)cc2=O)sc1C(=O)NCc1ccccc1 : 202 to 205 °C
CCOC(=O)CCc1ccc2c(c1)CC(CNS(=O)(=O)c1ccc(Cl)cc1)C2 (stereo not given) : 90 to 93 °C

Kindly consider the entry below.
# return recorded melting point for input `Nc1nc(=O)n(COCc2ccccc2)cc1F`
213 to 217 °C

* * *

result.type: melting point

Recorded results for 10 compounds are shown here.
Cc1ccc(S(=O)(=O)OCC2Cc3cccc(-c4ccc(C(F)(F)F)cc4)c3O2)cc1 (stereo not given) : 116 to 118 °C
CCc1cccc2[nH]c(C(=O)O)cc(=O)c12 : 272 to 273 °C
COC(=O)Cc1cn(-c2ccccc2)nc1OCc1ccc(OCc2nc(-c3ccccc3)oc2C)cc1 : 113 to 114 °C
COc1ccc(C(=O)Nc2ccc(Cl)c(Cl)c2)cc1NCc1cccc(F)c1 : 153 to 155 °C
CC(C)(C)c1nc2cc(N3CCN(S(C)(=O)=O)CC3)c(N)cc2s1 : 153 to 155 °C
COC(=O)c1cc([N+](=O)[O-])ccc1-c1c(OC)cccc1OC : 157 °C
CCC(O)(c1ccc(O)cc1O)c1ccccc1C(F)(F)F (stereo not given) : 143 to 144 °C
CNC(=O)Nc1cc(C2(C)CC2)on1 : 144 to 147 °C
CC(O)c1occc(=O)c1O (stereo not given) : 131 to 132 °C
CCn1cc(C(=O)O)c(=O)c2cc(F)c(N3CCOC(CNC=O)C3)c(F)c21 (stereo not given) : 234 to 236 °C

# return recorded melting point for input `O=C(NCCC1CC1)c1ccnc(N2CCN(Cc3ccc(F)cc3)C2=O)c1`
123 to 125 °C

# return recorded melting point for input `Cc1ccc(O)c(I)c1`
34.5 to 35.5 °C

# return recorded melting point for input Cc1cc(C2=NOC(c3cc(Cl)cc(Cl)c3)(C(F)(F)F)C2)ccc1Cl (stereo not given)
110 to 111 °C

# return recorded melting point for input `NC(=O)CC(=O)c1ccc(-c2ccc(Cl)cc2)o1`
180 to 181 °C

# return recorded melting point for input `COC(=O)C(=O)c1ccc(OCCOc2ccc(C(F)(F)F)cc2)cc1`
96 to 98 °C

# return recorded melting point for input `O=C(O)/C=C/c1ccc(-c2nc3c([nH]2)c(=O)n(CC2CCCCC2)c(=O)n3CC2CCCCC2)s1`
> 300 °C

# return recorded melting point for input `CC(C)[C@@H](NC(=O)c1cnc(N2CCC(N3C(=O)OCc4ccccc43)CC2)c(Cl)c1)C(N)=O`
140 to 143 °C

# return recorded melting point for input `Cc1nc(-c2cn(Cc3ccc(C(F)(F)F)cc3)nn2)sc1C(=O)NCc1cccnc1`
204 to 205 °C

# return recorded melting point for input CC1CC(C(=O)O)CCN1C(=O)OC(C)(C)C (stereo not given)
109 to 112 °C

# return recorded melting point for input `CC(C)(C)C(=O)Nc1ccc(C(F)(F)F)cc1`
154 to 158 °C

# return recorded melting point for input `CCOC(=O)c1cnc2c(NC(=O)c3c(Cl)cccc3Cl)cccc2c1CSc1ccncc1`
179 to 181 °C

# return recorded melting point for input `COc1ccc(CCNC(C)=O)cc1OC1CCCC1`
87 to 88 °C

# return recorded melting point for input `FC(F)(F)c1ccc2nc(N3CCN(c4c(Cl)cccc4Cl)CC3)[nH]c2c1`
263 to 265 °C

# return recorded melting point for input `CNc1cc(S(=O)(=O)c2ccccc2)cc(Br)n1`
145 to 148 °C

# return recorded melting point for input `CC(C)(C)CNC=Nc1ccc(-c2c[nH]cn2)cc1Br`
151 to 154 °C

# return recorded melting point for input `COc1ccc(C=CC(=O)NNC(=O)C=Cc2ccccc2)cc1`
263 °C

Data origin: a melting point compilation (Tetko et al.; mined from patent text by program, amines drawn as free bases though some values may be those of a salt)
